Source: patent US7585873B2

Kindly state melting point for each of the entries shown.
Structures can show the parent of a compound that is named as a salt.

I would be grateful if you could share the reported melting point for CN(C)CCn1cc(S(=O)(=O)c2ccccc2)c2ccc(Br)nc21 . 182 to 184 °C

Likewise for Cc1c(S(=O)(=O)c2cn(CCN(C)C)c3ncccc23)sc2ccc(Cl)cc12 ? 212 to 215 °C

Likewise for CN(C)CCn1cc(S(=O)(=O)c2c(Cl)cccc2Cl)c2cccnc21 ? 220 to 222 °C

Likewise for CN(C)CCn1cc(S(=O)(=O)c2cc(Cl)ccc2Cl)c2cccnc21 (as salt: hydrochloride) ? 230 to 232 °C

---

# study_system: human cloned 5-HT6 receptors (Homo sapiens)
# Construct: expressed in transfected cells; host or cells: Hela cells
# Sequence (P50406 whole entry): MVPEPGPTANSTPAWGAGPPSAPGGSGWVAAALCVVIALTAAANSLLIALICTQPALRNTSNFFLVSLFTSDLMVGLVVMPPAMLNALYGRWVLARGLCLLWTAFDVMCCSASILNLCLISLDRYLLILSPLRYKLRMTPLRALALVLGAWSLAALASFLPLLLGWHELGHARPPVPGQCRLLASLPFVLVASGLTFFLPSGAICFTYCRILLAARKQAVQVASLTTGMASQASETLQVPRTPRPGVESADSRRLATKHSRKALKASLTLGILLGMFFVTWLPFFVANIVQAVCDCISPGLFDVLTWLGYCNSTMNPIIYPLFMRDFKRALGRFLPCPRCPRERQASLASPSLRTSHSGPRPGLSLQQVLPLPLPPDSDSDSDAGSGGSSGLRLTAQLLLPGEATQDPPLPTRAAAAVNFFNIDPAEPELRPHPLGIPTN
# measurement_protocol: 5-HT6 binding affinity, [3H]-LSD displacement on membranes of Hela cells expressing human cloned 5-HT6 receptors
# test_parameters: [3H]-LSD 3.0 nM, Hela cell membranes, 120 min at room temperature; read-out: 5-HT6 Binding Ki
observed_property: Ki (nM)
# output: bare number, implied unit nM

I would be grateful if you could share the reported Ki for CN(C)CCn1cc(S(=O)(=O)c2cc(Cl)cc(Cl)c2)c2cccnc21 [Example 26] . 4

Likewise for CN(C)CCn1cc(S(=O)(=O)c2cccc(C(F)(F)F)c2)c2cccnc21 [Example 19] ? 5

Likewise for Cc1c(S(=O)(=O)c2cccc(F)c2)c2cccnc2n1CCN [Example 66] ? 2

Likewise for CN(C)CCn1cc(S(=O)(=O)c2ccc(Cl)s2)c2cccnc21 [Example 33] ? 4

Likewise for NCCn1cc(S(=O)(=O)c2cccc(F)c2)c2cccnc21 [Example 17] ? 6

---

Structures can show the parent of a compound that is named as a salt.
observed_property: melting point

I would be grateful if you could share the reported melting point for Cc1c(S(=O)(=O)c2cccc(F)c2)c2cccnc2n1CCN (as salt: hydrochloride) . 239 to 241 °C

Likewise for NCCn1cc(S(=O)(=O)c2ccccc2C(F)(F)F)c2cccnc21 (as salt: hydrochloride) ? 182 to 185 °C

Likewise for O=S(=O)(c1cccc(F)c1)c1cn(CCN2CCCCC2)c2ncccc12 (as salt: hydrochloride) ? 197 to 199 °C

Likewise for NCCn1cc(S(=O)(=O)c2cccc(C(F)(F)F)c2)c2cccnc21 (as salt: hydrochloride) ? 179 to 183 °C

---

# study_system: human cloned 5-HT6 receptors (Homo sapiens)
# Construct: expressed in transfected cells; host or cells: Hela cells
# measurement_protocol: 5-HT6 binding affinity, [3H]-LSD displacement on membranes of Hela cells expressing human cloned 5-HT6 receptors
# test_parameters: read-out: 5-HT6 Binding Ki
Structures can show the parent of a compound that is named as a salt.
observed_property: pKi
Please note pKi is a logarithmic value: minus log10 of concentration in mol/L. Answer with that number alone.

I would be grateful if you could share the reported pKi for CN(C)CCn1cc(S(=O)(=O)c2ccccc2)c2cccnc21 [Example 6, dihydrochloride] . 7.64

Likewise for CNCCn1cc(S(=O)(=O)c2cccc(Cl)c2)c2cccnc21 [Example 57, Hydrochloride] ? 9.52

Likewise for CN(C)CCn1cc(S(=O)(=O)c2cccc3ccccc23)c2cccnc21 [Example 15] ? 9.00

Likewise for CNCCn1cc(S(=O)(=O)c2cccc(F)c2)c2cccnc21 [Example 59] ? 9.00

Likewise for NCCn1cc(S(=O)(=O)c2ccc(F)cc2)c2cccnc21 [Example 11, hydrochloride] ? 7.66
